test: qHTS assay to test for compound auto fluorescence at 590 nm (red) in HepG2 cell free culture (AID 720684); details: cell-free medium autofluorescence, red 540/590 nm; series mostly up to 46 µM; note: % is set by controls: 0 for no effect and ±100 for the full control effect
Active and inactive are the calls of the source. Calls come from the whole dose curve; as a rule, active = well fitted curve in the direction sought with a large enough effect in the repeat runs; inconclusive = weak or mixed curves; inactive = flat fitted curve, though single readings scatter.
measureName: outcome

// below: answered compounds
compound: CN[C@@H]1CCc2[nH]c3ccc(C(N)=O)cc3c2C1
measureName: outcome
valueObserved: inactive
//
compound: CNC(C)[C@@H]1CC[C@@H](N)[C@@H](O[C@H]2[C@H](O)[C@@H](O[C@H]3OC[C@](C)(O)[C@H](NC)[C@H]3O)[C@H](N)C[C@@H]2N)O1 (some centres not stated)
measureName: outcome
valueObserved: inactive
//
compound: CC[C@@H](C(=O)[C@@H](C)[C@@H](O)[C@H](C)[C@@H]1O[C@@H]([C@@H](CC)C(=O)O)CC[C@@H]1C)[C@H]1O[C@]2(C=C[C@@H](O)[C@]3(CC[C@@](C)([C@H]4CC[C@](O)(CC)[C@H](C)O4)O3)O2)[C@H](C)C[C@@H]1C
measureName: outcome
valueObserved: inactive
//
compound: CCCCCCCN(CC)CCCC(O)c1ccc(NS(C)(=O)=O)cc1 (configuration not stated)
measureName: outcome
valueObserved: inactive
//
compound: CC[C@H](C)[C@@H]1NC(=O)[C@H](Cc2ccc(O)cc2)NC(=O)[C@@H](N)CSSC[C@@H](C(=O)N2CCC[C@H]2C(=O)N[C@@H](CC(C)C)C(=O)NCC(N)=O)NC(=O)[C@H](CC(N)=O)NC(=O)[C@H](CCC(N)=O)NC1=O
measureName: outcome
valueObserved: inactive
//
compound: O=C(O)c1nc(=O)[nH]c(=O)[nH]1
measureName: outcome
valueObserved: inactive

Consider the following items and state reported outcome for each.
1. CCCCCCCCCCCC(=O)N(CCO)CCO
2. CC(=O)OC[C@H]1O[C@@H](O[C@H]2[C@H](O)[C@@H](OC(=O)c3ccccc3C(=O)O)[C@H](O)O[C@@H]2COC(C)=O)[C@H](O)[C@@H](OC(=O)c2ccccc2C(=O)O)[C@@H]1O
3. O=C(O)C1CCCN1 (configuration not stated)

Reply:
["inactive", "inactive", "inactive"]

---

experiment: qHTS assay to identify small molecule antagonists of the androgen receptor (AR) signaling pathway - cell viability counter screen (AID 743033; note: % is set by controls: 0 for no effect and ±100 for the full control effect; nearly all actives have a fitted effect of over 45% in size); settings: AR-bla HEK293 viability, CellTiter-Glo luminescence, 16 h; series mostly up to 58.5 µM
Results filed as inconclusive are left out. The source made the active and inactive calls. Calls come from the whole dose curve; as a rule, active = well fitted cell-killing curve with a large enough effect in the repeat runs; inconclusive = weak or mixed curves; inactive = no such curve, though single readings can be large or run the other way.
measureName: outcome

// below: answered molecules
molecule: N[C@@H](C(=O)N[C@@H]1C(=O)N2C(C(=O)O)=C(CSc3cn[nH]n3)CS[C@H]12)c1ccc(O)cc1
measureName: outcome
valueObserved: inactive
--
molecule: Cc1ccccc1CNc1ncnc2c1ncn2[C@@H]1O[C@H](CO)[C@@H](O)[C@H]1O
measureName: outcome
valueObserved: inactive
--
molecule: CO[C@@H]1[C@@H](O[C@@H]2O[C@H](C)[C@@H](O[C@H]3C[C@@](C)(O)[C@@H](OC(=O)CC(C)C)[C@H](C)O3)[C@H](N(C)C)[C@H]2O)[C@@H](CC=O)C[C@@H](C)C(=O)/C=C/C2OC2C[C@@H](C)OC(=O)C[C@H]1OC(C)=O (stereo not given in full)
measureName: outcome
valueObserved: inactive
--
molecule: CC[C@@H]1/C=C(\C)C[C@H](C)C[C@H](OC)[C@H]2O[C@@](O)(C(=O)C(=O)N3CCCC[C@H]3C(=O)O[C@H](/C(C)=C/[C@@H]3CC[C@@H](Cl)[C@H](OC)C3)[C@H](C)[C@@H](O)CC1=O)[C@H](C)C[C@@H]2OC
measureName: outcome
valueObserved: inactive
--
molecule: CCCCC(=O)N(Cc1ccc(-c2ccccc2-c2nn[nH]n2)cc1)[C@@H](C(=O)O)C(C)C
measureName: outcome
valueObserved: inactive

Consider the following items and state reported outcome for each.
1. COCC1=C(C(=O)OC(C)OC(=O)OC(C)C)N2C(=O)[C@@H](NC(=O)/C(=N\OC)c3csc(N)n3)[C@H]2SC1 (stereo not given in full)
2. COc1cc([C@@H]2c3cc4c(cc3C(O[C@@H]3O[C@@H]5CO[C@@H](C)O[C@H]5[C@H](O)[C@H]3O)C3COC(=O)[C@@H]32)OCO4)cc(OC)c1OP(=O)(O)O (stereo not given in full)
3. CC(O)[C@H]1CC[C@H]2[C@@H]3CC[C@@H]4C[C@@H](O)CC[C@]4(C)[C@H]3CC[C@]12C (stereo not given in full)
4. O=P(O)(O)OC(CO)CO
5. Cc1c(Cl)cccc1Nc1ncccc1C(=O)O
6. Nc1ncnc2c1ncn2[C@@H]1O[C@H](COP(=O)(O)OP(=O)(O)OP(=O)(O)O)[C@@H](O)[C@H]1O
7. O=C(OC[C@H]1O[C@](O)(COC(=O)c2cccnc2)[C@@H](OC(=O)c2cccnc2)[C@@H]1OC(=O)c1cccnc1)c1cccnc1
8. Cn1c(=O)c2c(ncn2CCOC(=O)C(C)(C)Oc2ccc(Cl)cc2)n(C)c1=O

Reply:
["inactive", "inactive", "inactive", "inactive", "inactive", "inactive", "inactive", "inactive"]

Consider the following items and state reported outcome for each.
1. C=CCN1CCCC1CNC(=O)c1cc(S(N)(=O)=O)cc(OC)c1OC (stereo not given)
2. Cc1ncc(C[n+]2csc(CCOP(=O)(O)OP(=O)(O)O)c2C)c(N)n1

Reply:
1. inactive
2. inactive

---

assay: qHTS assay to test for compound auto fluorescence at 460 nm (blue) in HepG2 cell free culture (AID 720685); details: Cell-free culture medium, blue autofluorescence 405/460 nm; series mostly up to 46 µM; note: % is set by controls: 0 for no effect and ±100 for the full control effect
The source made the active and inactive calls. Calls come from the whole dose curve; as a rule, active = well fitted curve in the direction sought with a large enough effect in the repeat runs; inconclusive = weak or mixed curves; inactive = flat fitted curve, though single readings scatter.
measureName: outcome

// below: answered molecules
molecule: CN1CCN(C(c2ccccc2)c2ccc(Cl)cc2)CC1 (stereo unspecified)
outcome: inactive

molecule: N[C@@H](C(=O)N[C@@H]1C(=O)N2C(C(=O)O)=C(CSc3cn[nH]n3)CS[C@H]12)c1ccc(O)cc1
outcome: inactive

molecule: CCC(=O)O[C@@H]1CC(=O)O[C@H](C)C/C=C/C=C/[C@H](O)[C@H](C)C[C@H](CC=O)[C@H](O[C@@H]2O[C@H](C)[C@@H](O[C@H]3C[C@@](C)(O)[C@@H](OC(=O)CC)[C@H](C)O3)[C@H](N(C)C)[C@H]2O)[C@H]1OC
outcome: inactive

molecule: CC1=C(C(=O)OCCN(Cc2ccccc2)c2ccccc2)C(c2cccc([N+](=O)[O-])c2)C(P2(=O)OCC(C)(C)CO2)=C(C)N1 (stereo unspecified)
outcome: inactive

Consider the following items and state reported outcome for each.
1. CC[C@H]1NC(=O)[C@@H](NC(=O)c2ncccc2O)[C@@H](C)OC(=O)[C@H](c2ccccc2)NC(=O)[C@@H]2CC(=O)CCN2C(=O)[C@H](Cc2ccccc2)N(C)C(=O)[C@@H]2CCCN2C1=O
2. OCCO[C@@H]1[C@@H](O)[C@H](O)[C@@H](CO)O[C@@H]1O

Reply:
1. inactive
2. inactive

---

assay: qHTS assay to identify small molecule phospholipidosis (PLD) inducers (AID 1259344); conditions: HepG2 phospholipidosis, LipidTOX Red imaging, 24 h; series mostly up to 38.3 µM; note: % is set by controls: 0 for no effect and ±100 for the full control effect
Records with an inconclusive call do not appear. Calls of active or inactive are those of the source. Calls come from the whole dose curve; as a rule, active = well fitted activation curve with a large enough effect; inconclusive = small, poorly fitted or top-dose-only effect; inactive = flat fitted curve, though single readings scatter.
measureName: PLD induction

// below: answered molecules
molecule: CCCCC/C=C\C/C=C\C/C=C\CCCCC(=O)O
measureName: PLD induction
valueObserved: inactive
--
molecule: CCCCCCC(=O)O[C@H]1CC[C@H]2[C@@H]3CCc4cc(O)ccc4[C@H]3CC[C@]12C
measureName: PLD induction
valueObserved: inactive
--
molecule: O=S(=O)(O)Oc1ccc(C(c2ccc(OS(=O)(=O)O)cc2)c2ccccn2)cc1
measureName: PLD induction
valueObserved: inactive
--
molecule: [O]=[Bi][O][Bi]=[O]
measureName: PLD induction
valueObserved: inactive
--
molecule: NS(=O)(=O)c1cc2c(cc1Cl)NC(Cc1ccccc1)NS2(=O)=O (stereo not drawn)
measureName: PLD induction
valueObserved: inactive
--
molecule: CCCCCCCCCCCCCCCCOCCOCCOCCOCCOCCOCCOCCOCCOCCOCCOCCOCCOCCOCCOCCOCCOCCOCCOCCOCCO
measureName: PLD induction
valueObserved: inactive

Consider the following items and state reported PLD induction for each.
1. CC1(C)N=C(N)N=C(N)N1c1ccc(Cl)cc1
2. CC[C@H](C)[C@@H]1NC(=O)[C@H](Cc2ccc(O)cc2)NC(=O)[C@@H](N)CSSC[C@@H](C(=O)N2CCC[C@H]2C(=O)N[C@@H](CC(C)C)C(=O)NCC(N)=O)NC(=O)[C@H](CC(N)=O)NC(=O)[C@H](CCC(N)=O)NC1=O
3. Nc1ncnc2c1ncn2[C@@H]1O[C@H](COP(=O)(O)OP(=O)(O)OP(=O)(O)O)[C@@H](O)[C@H]1O

Reply:
["-3.82% [at 7.66 µM] (inactive)", "inactive", "inactive"]

Consider the following items and state reported PLD induction for each.
1. C=C1CC2C3CCC4=CC(=O)C=C[C@]4(C)[C@@]3(F)[C@@H](O)C[C@]2(C)[C@@]1(O)C(=O)COC(C)=O (stereo partly drawn)
2. NC(=O)C[C@@H](N)C(=O)O

Reply:
["-8.32% [at 7.66 µM] (inactive)", "inactive"]
